# Tested on: PC-3 [JPC-3]
# protocolText: relative viability (nuclei count vs DMSO), 5 days (fraction); higher = more cells survive
# cond: first compound 0.4 µM
parameterMeasured: relative viability

Consider the following illustrative entries.
{"compound": "COc1cc(N2CCC(C(N)=O)CC2)ccc1Nc1nc(N)c(Cl)c(Nc2ccccc2S(=O)(=O)C(C)C)n1 [HG-5-88-01] + Cc1nc(NC(=O)N2CCC[C@H]2C(N)=O)sc1-c1ccnc(C(C)(C)C(F)(F)F)c1 [Alpelisib] (partner 2 µM)", "target": "PC-3 [JPC-3]", "relative viability": 1}
{"compound": "COc1cc(N2CCC(C(N)=O)CC2)ccc1Nc1nc(N)c(Cl)c(Nc2ccccc2S(=O)(=O)C(C)C)n1 [HG-5-88-01] + O=C(CCCCCCC(=O)Nc1ccccc1)NO [Vorinostat] (partner 1 µM)", "target": "PC-3 [JPC-3]", "relative viability": 0.58}

Now turn to the next compound.
Which relative viability value is on record for COc1cc(N2CCC(C(N)=O)CC2)ccc1Nc1nc(N)c(Cl)c(Nc2ccccc2S(=O)(=O)C(C)C)n1 [HG-5-88-01] + CCNC(=O)c1noc(-c2cc(C(C)C)c(O)cc2O)c1-c1ccc(CN2CCOCC2)cc1 [Luminespib] (partner 0.01 µM) ?
0.724

====

Listed below: relative viability values for each entry.
# Tested on: SK-LU-1
# protocolText: relative viability (nuclei count vs DMSO), 5 days (fraction); higher = more cells survive
# cond: first compound 0.1265 µM
Please give the numeric answer without any surrounding text.

Known relative viability results, listed for orientation:
{"molecule": "Clc1ccc(Nc2nnc(Cc3ccncc3)c3ccccc23)cc1 [Vatalanib] + Cc1nc(Nc2ncc(C(=O)Nc3c(C)cccc3Cl)s2)cc(N2CCN(CCO)CC2)n1 [Dasatinib] (partner 0.075 µM)", "relative viability": 0.188}
{"molecule": "Clc1ccc(Nc2nnc(Cc3ccncc3)c3ccccc23)cc1 [Vatalanib] + COc1cc2c(Oc3ccc(NC(=O)C4(C(=O)Nc5ccc(F)cc5)CC4)cc3F)ccnc2cc1OCCCN1CCOCC1 [Foretinib] (partner 0.25 µM)", "relative viability": 0.741}
{"molecule": "C[C@@H]1CN(CC(=O)Nc2ccc3c(c2)Cc2cccc(-c4cc(=O)cc(N5CCOCC5)o4)c2S3)C[C@H](C)O1 + COc1cc2c(Oc3ccc(NC(=O)C4(C(=O)Nc5ccc(F)cc5)CC4)cc3F)ccnc2cc1OCCCN1CCOCC1 [Foretinib] (partner 0.25 µM)", "relative viability": 0.831}

Let us examine a further case.
What relative viability appears in the records for this molecule with SK-LU-1? COc1cc(N2CCC(C(N)=O)CC2)ccc1Nc1nc(N)c(Cl)c(Nc2ccccc2S(=O)(=O)C(C)C)n1 [HG-5-88-01] + CC(=O)c1c(C)c2cnc(Nc3ccc(N4CCNCC4)cn3)nc2n(C2CCCC2)c1=O [Palbociclib] (partner 0.5 µM)
0.422

====

# Tested on: NCI-H1944
# protocolText: relative viability (nuclei count vs DMSO), 5 days (fraction); higher = more cells survive
# cond: first compound 4 µM
Reported relative viability by item:

Consider the following illustrative entries.
{"molecule": "C[C@@H]1CN(CC(=O)Nc2ccc3c(c2)Cc2cccc(-c4cc(=O)cc(N5CCOCC5)o4)c2S3)C[C@H](C)O1 + N=C(N)NC(=N)NCCc1ccccc1 [Phenformin] (partner 250 µM)", "relative viability": 0.215}
{"molecule": "Clc1ccc(Nc2nnc(Cc3ccncc3)c3ccccc23)cc1 [Vatalanib] + Nc1nc2[nH]cc(CCc3ccc(C(=O)N[C@@H](CCC(=O)O)C(=O)O)cc3)c2c(=O)[nH]1 [Pemetrexed] (partner 0.2 µM)", "relative viability": 0.558}

Next:
# lookup: relative viability of Clc1ccc(Nc2nnc(Cc3ccncc3)c3ccccc23)cc1 [Vatalanib] + N=C(N)NC(=N)NCCc1ccccc1 [Phenformin] (partner 250 µM)
0.19

Attribution: the supplement of paper PMC10307832
